Reference for the values: patent US20230219979A1

target: Wild-type RET kinase (Homo sapiens, UniProt P07949)
Sequence (P07949 29-1114): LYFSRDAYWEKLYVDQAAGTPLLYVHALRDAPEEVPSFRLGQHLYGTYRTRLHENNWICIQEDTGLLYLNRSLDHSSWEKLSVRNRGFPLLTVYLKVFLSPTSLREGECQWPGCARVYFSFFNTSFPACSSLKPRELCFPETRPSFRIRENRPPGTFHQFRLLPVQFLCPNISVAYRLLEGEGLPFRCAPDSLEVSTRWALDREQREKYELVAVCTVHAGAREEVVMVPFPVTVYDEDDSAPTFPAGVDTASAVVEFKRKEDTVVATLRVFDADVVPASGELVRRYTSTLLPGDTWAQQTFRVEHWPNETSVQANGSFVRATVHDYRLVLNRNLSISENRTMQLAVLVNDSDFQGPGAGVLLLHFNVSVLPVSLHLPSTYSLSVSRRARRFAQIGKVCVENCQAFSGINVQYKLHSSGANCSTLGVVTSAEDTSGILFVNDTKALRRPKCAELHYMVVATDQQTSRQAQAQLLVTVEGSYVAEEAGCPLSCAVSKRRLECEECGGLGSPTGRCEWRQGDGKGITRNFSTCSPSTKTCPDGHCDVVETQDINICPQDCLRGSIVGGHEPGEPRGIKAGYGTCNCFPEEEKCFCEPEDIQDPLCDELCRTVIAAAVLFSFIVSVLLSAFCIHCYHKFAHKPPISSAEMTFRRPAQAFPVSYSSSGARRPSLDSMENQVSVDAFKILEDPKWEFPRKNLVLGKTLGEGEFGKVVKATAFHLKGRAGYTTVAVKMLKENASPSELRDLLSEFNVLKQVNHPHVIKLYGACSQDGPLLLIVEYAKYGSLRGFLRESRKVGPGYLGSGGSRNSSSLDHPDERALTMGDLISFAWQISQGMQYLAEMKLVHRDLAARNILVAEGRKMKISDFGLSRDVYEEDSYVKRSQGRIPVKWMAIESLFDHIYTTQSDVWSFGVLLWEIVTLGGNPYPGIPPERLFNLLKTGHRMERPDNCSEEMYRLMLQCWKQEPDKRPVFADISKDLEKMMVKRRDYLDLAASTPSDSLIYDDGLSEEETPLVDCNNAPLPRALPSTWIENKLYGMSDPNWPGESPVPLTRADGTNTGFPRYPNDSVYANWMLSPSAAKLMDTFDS
assay: HTRF method for testing the inhibitory activity of compounds against RET
Format: biochemical
assay.conditions: HTRF; read-out: Wild-type RET kinase
Mark 1 only for IC50 values smaller than 0.2 nM; exact matches and larger values are -1.

>  <compound>
COc1ccc(CN2C3CC2CN(c2cnc(-c4cc(OCCN5CCC6NCCC6C5)cn5ncc(C#N)c45)cn2)C3)cn1 (stereo not shown) [Compound 18]

>  <category>
-1

$$$$

Problem: Lab log: compare recorded IC50 with 0.2 nM; is it strictly lower for COc1ccc(CN2C3CC2CN(c2ccc(-c4cc(NCC(F)F)cn5ncc(C#N)c45)cn2)C3)cn1 [Compound 50] ?
Solution: 1

Problem: Lab log: compare recorded IC50 with 0.2 nM; is it strictly lower for COc1ccc(CN2C3CC2CN(c2ccc(-c4cc(NCCF)cn5ncc(C#N)c45)cn2)C3)cn1 [Compound 49] ?
Solution: 1
